Protein target, amino acids: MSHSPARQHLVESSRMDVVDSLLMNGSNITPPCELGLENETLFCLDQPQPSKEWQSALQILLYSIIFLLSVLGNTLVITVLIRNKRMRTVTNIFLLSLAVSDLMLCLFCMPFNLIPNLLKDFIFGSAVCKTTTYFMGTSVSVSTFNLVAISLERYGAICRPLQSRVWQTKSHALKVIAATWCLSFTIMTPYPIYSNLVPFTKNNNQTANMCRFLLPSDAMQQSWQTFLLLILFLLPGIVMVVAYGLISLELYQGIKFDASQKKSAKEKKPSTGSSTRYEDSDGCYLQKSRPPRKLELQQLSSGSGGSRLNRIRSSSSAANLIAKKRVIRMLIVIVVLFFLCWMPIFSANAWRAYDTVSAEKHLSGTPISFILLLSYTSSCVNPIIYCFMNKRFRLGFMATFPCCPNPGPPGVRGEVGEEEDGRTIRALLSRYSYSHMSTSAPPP
pIC50: −log10 of the molar value.

Molecule | pIC50
CN(C)C(=O)c1oc2ccccc2c1CC(C)(NC(=O)OC1C2CC3CC(C2)CC1C3)C(=O)NCCc1ccccc1 (centres undefined) | 7.19
CC(Cc1ccc2c(c1)C(C)(C)CCC2(C)C)(NC(=O)OC1C2CC3CC(C2)CC1C3)C(=O)NCCc1ccccc1 (centres undefined) | 4.70
CC(Cc1ccc(Oc2ccccc2)cc1)(NC(=O)OC1C2CC3CC(C2)CC1C3)C(=O)N[C@H](CO)[C@H](O)c1ccccc1 (some centres undefined) | 6.21
O=C(CCC(=O)OCc1ccccc1)N[C@@H](CNC(=O)C(Cc1c[nH]c2ccc(F)cc12)NC(=O)OC1C2CC3CC(C2)CC1C3)c1ccccc1 (some centres undefined) | 6.23
